Test system: NCI-H23
Assay: NCI tumour cell line growth inhibition, 48 h
Activity calls are given as the source filed them. No stated cut-off is given here; in the data, active = GI50 up to about 1.1 µM and inactive = higher.
// classify into 1 (yes) (active), 0 (no) (inactive)

See these solved cases before continuing.
CCCCCCCCCCCCCCCCCCNc1ccn(C2OC(COP(=O)(O)OCC3OC(n4cc(C)c(=O)[nH]c4=O)CC3O)C(O)C2O)c(=O)n1 (centres undefined); 0 (no)
C[N+]1(C)C/C(=C/c2ccc(F)cc2)C(=O)/C(=C\c2ccc(F)cc2)C1; 0 (no)
CCOC(=O)NC(C(F)(F)F)(C(F)(F)F)P(=O)(OC(C)C)OC(C)C; 0 (no)
COc1cc(C2C3=C(CCC3=O)Oc3cc4c(cc32)OCO4)cc(OC)c1OC (centres undefined); 1 (yes)

// next entry
Q: Which result was noted for this compound in the test: N#Cc1nc(C(CO)N(Cc2ccccc2)C(=O)O)oc1N (centres undefined)
Result: 0 (no)

These entries and their values trace back to ChEMBL document CHEMBL1201862.
